# studyTarget: rat recombinant D3 receptors (Rattus norvegicus, UniProt P19020)
# Sequence (P19020 whole entry): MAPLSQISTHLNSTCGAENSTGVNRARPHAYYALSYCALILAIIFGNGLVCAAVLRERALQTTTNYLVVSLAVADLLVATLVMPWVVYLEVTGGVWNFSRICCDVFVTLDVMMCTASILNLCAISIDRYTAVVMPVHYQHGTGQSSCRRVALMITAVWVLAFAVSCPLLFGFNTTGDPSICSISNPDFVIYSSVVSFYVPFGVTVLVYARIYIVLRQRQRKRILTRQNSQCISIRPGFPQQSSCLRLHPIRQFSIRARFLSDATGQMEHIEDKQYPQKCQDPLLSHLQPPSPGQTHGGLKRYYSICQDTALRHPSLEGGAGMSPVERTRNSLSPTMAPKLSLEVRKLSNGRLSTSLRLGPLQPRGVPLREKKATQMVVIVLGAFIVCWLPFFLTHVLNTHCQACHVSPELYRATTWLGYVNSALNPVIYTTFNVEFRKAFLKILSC
# assayOverview: D3 receptor binding ([3H]spiperone)
# assayContext: rat recombinant D3 receptors expressed in Sf9 cells
pKi: −log10 of the molar value.
quantityKind: pKi

{"compound": "CNc1nc(Cl)c(Cl)c(N2CCN(CC[C@H]3CC[C@H](NC(=O)N4CCOCC4)CC3)CC2)n1", "quantityKind": "pKi", "result": "8.52 to 9.00"}
{"compound": "CNc1nc(Cl)c(Cl)c(N2CCN(CCC3CCC(NC(=O)N(C)C)CC3)CC2)n1 (stereo not drawn)", "quantityKind": "pKi", "result": "8.52 to 9.00"}
{"compound": "CCNc1nc(Cl)c(Cl)c(N2CCN(CC[C@H]3CC[C@H](NC(C)=O)CC3)CC2)n1", "quantityKind": "pKi", "result": "8.52 to 9.00"}
{"compound": "CCC(=O)NC1CCC(CCN2CCN(c3nc(NC)nc(Cl)c3Cl)CC2)CC1 (stereo not drawn)", "quantityKind": "pKi", "result": "> 9.00"}
{"compound": "CCNC(=O)N[C@H]1CC[C@H](CCN2CCN(c3nc(NC)nc(Cl)c3Cl)CC2)CC1", "quantityKind": "pKi", "result": "> 9.00"}

Next:
Task item: pKi lookup needed for CNc1nc(Cl)c(Cl)c(N2CCN(CC[C@H]3CC[C@H](NC(N)=O)CC3)CC2)n1 , thanks.
Reply: 8.52 to 9.00

====

# studyTarget: Alpha-1 receptor
# assayOverview: Alpha-1 receptor binding ([3H]-prazosine, rat cortical membrane preparation)
# assayContext: rat cortical membrane preparation, [3H]-prazosine; read-out: α-1 Ki
pKi: −log10 of the molar value.
quantityKind: pKi

Known results for compounds:
{"compound": "CCC(=O)NC1CCC(CCN2CCN(c3nc(NC)nc(Cl)c3Cl)CC2)CC1 (stereo not shown)", "studyTarget": "Alpha-1 receptor", "quantityKind": "pKi", "result": "< 6.00"}
{"compound": "CNc1nc(Cl)c(Cl)c(N2CCN(CCC3CCC(NC(=O)N(C)C)CC3)CC2)n1 (stereo not shown)", "studyTarget": "Alpha-1 receptor", "quantityKind": "pKi", "result": "< 6.00"}
{"compound": "CCNc1nc(Cl)c(Cl)c(N2CCN(CC[C@H]3CC[C@H](NC(C)=O)CC3)CC2)n1", "studyTarget": "Alpha-1 receptor", "quantityKind": "pKi", "result": "< 6.00"}
{"compound": "CNc1nc(Cl)c(Cl)c(N2CCN(CC[C@H]3CC[C@H](NC(C)=O)CC3)CC2)n1", "studyTarget": "Alpha-1 receptor", "quantityKind": "pKi", "result": "< 6.00"}
{"compound": "CCNC(=O)N[C@H]1CC[C@H](CCN2CCN(c3nc(NC)nc(Cl)c3Cl)CC2)CC1", "studyTarget": "Alpha-1 receptor", "quantityKind": "pKi", "result": "< 6.00"}
{"compound": "CNc1nc(Cl)c(Cl)c(N2CCN(CC[C@H]3CC[C@H](NC(=O)N4CCOCC4)CC3)CC2)n1", "studyTarget": "Alpha-1 receptor", "quantityKind": "pKi", "result": "< 6.00"}

// moving on: another record for pKi
Task item: Consider the compound shown here: CNc1nc(Cl)c(Cl)c(N2CCN(CC[C@H]3CC[C@H](NC(N)=O)CC3)CC2)n1 What is its recorded pKi?
Reply: < 6.00

Hey, just so you know, these numbers are from patent EP2132185B1.
